Molecular target: human kisspeptin receptor (KISS1R) (human), Q969F8
Sequence (Q969F8 whole entry): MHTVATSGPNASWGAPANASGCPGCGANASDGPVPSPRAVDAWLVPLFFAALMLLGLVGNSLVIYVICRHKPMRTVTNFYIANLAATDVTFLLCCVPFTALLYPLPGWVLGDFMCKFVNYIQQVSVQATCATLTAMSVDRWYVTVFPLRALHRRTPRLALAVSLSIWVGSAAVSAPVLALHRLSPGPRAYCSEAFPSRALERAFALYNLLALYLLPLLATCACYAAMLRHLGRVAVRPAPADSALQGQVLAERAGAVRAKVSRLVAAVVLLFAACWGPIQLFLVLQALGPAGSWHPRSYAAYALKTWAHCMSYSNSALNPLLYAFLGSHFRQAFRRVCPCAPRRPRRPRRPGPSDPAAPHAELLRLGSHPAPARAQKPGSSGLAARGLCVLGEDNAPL
Assay: radioligand competition, hKISS1R membranes; legend: C is >100 nM
pKi: −log10 of the molar value. Square brackets hold non-standard residues; d marks the D form. Ends that are not written are not given here. * marks the point of attachment. Apc(4-OMe) = 4-aminopiperidine-4-carboxylic acid residue N1-acylated by a methoxy-bearing benzylglycyl; DOTA = O=C(O)CN1CCN(CC(=O)O)CCN(CC(=O)*)CCN(CC(=O)O)CC1; Api(1-amidino) = N=C(N)N1CCC(N)(C(=O)O)CC1; Ahx = NCCCCCC(=O)O; azaGly = NNC(=O)O
readout: pKi

{DOTA-Ahx}-FGL[Api(1-amidino)]W-NH2 (SMILES CC(C)C[C@H](NC(=O)CNC(=O)[C@H](Cc1ccccc1)NC(=O)CCCCCNC(=O)CN1CCN(CC(=O)O)CCN(CC(=O)O)CCN(CC(=O)O)CC1)C(=O)NC1(C(=O)N[C@@H](Cc2c[nH]c3ccccc23)C(N)=O)CCN(C(=N)N)CC1) [Compound 3]    < 7.00

Now look at this entry.
## Input Give recorded pKi. ENTF[azaGly][dL][Apc(4-OMe)]F [Compound 239]
## Output < 7.00
